Quick list: ELISA signal per entry.
# experimental system: T1, Recombinant Human DLL4 (delta-like protein 4) (human, UniProt Q9NR61 27-524)
# T1 construct: Bought recombinant human DLL4 coated on the ELISA plate; also called rHuman DLL4
# assay summary: ELISA, DLL4 coated on plate, Fab at 100 nM (2-fold dilution series), absorbance at 450 nm

binder	ELISA signal
Fab VH5-51_IGHD5-18*01>3_IGHJ4*01 G100K/G104T G24A/S28R/G35V (KT ARV) & V3-4_IGLJ1*01 V91L/S96P S52H (Fab, V domains shown, Fab; Expressed in E. coli with CH1 (plasmid A, His6 and Flag tags) and lambda CL (plasmid E); Fab H:KT TRV & L:LP S52H; also called G100K/G104T G24A/S28R/G35V & V91L/S96P S52H) VH: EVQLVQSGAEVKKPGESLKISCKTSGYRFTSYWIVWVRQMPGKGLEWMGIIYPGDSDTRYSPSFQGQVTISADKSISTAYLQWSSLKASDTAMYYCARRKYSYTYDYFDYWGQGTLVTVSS VL: QTVVTQEPSFSVSPGGTVTLTCGLSSGSVSTSYYPSWYQQTPGQAPRTLIYHTNTRSSGVPDRFSGSILGNKAALTITGAQADDESDYYCLLYMGPGISYVFGTGTKVTVL	1.09
Fab VH5-51_IGHD5-18*01>3_IGHJ4*01 G100K/G104T G24T/S28R/G35V (KT TRV) & V3-4_IGLJ1*01 V91L/S96P S52Y (Fab, V domains shown, Fab; Expressed in E. coli with CH1 (plasmid A, His6 and Flag tags) and lambda CL (plasmid E); also called H:KT TRV & L:LP S52Y) VH: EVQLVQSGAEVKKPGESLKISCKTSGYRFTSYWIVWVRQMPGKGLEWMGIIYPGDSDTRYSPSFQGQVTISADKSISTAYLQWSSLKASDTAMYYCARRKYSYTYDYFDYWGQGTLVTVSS VL: QTVVTQEPSFSVSPGGTVTLTCGLSSGSVSTSYYPSWYQQTPGQAPRTLIYYTNTRSSGVPDRFSGSILGNKAALTITGAQADDESDYYCLLYMGPGISYVFGTGTKVTVL	0.9
Fab VH5-51_IGHD5-18*01>3_IGHJ4*01 G100K/G104T G24A/S28R/G35V (KT ARV) & V3-4_IGLJ1*01 V91L/S96P S52V (Fab, V domains shown, Fab; Expressed in E. coli with CH1 (plasmid A, His6 and Flag tags) and lambda CL (plasmid E); The light-chain S52 variants were made on the KT TRV heavy chain (T0104); also called G100K/G104T G24A/S28R/G35V & V91L/S96P S52V) VH: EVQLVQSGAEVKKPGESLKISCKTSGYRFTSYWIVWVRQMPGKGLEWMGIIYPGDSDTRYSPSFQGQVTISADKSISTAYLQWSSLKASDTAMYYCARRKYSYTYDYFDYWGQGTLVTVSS VL: QTVVTQEPSFSVSPGGTVTLTCGLSSGSVSTSYYPSWYQQTPGQAPRTLIYVTNTRSSGVPDRFSGSILGNKAALTITGAQADDESDYYCLLYMGPGISYVFGTGTKVTVL	0.95
Fab VH5-51_IGHD5-18*01>3_IGHJ4*01 G100K & V3-4_IGLJ1*01 (wildtype) (Fab, V domains shown, Fab; Expressed in E. coli with CH1 (plasmid A, His6 and Flag tags) and lambda CL (plasmid E); also called G100K & Wildtype) VH: EVQLVQSGAEVKKPGESLKISCKGSGYSFTSYWIGWVRQMPGKGLEWMGIIYPGDSDTRYSPSFQGQVTISADKSISTAYLQWSSLKASDTAMYYCARRKYSYGYDYFDYWGQGTLVTVSS VL: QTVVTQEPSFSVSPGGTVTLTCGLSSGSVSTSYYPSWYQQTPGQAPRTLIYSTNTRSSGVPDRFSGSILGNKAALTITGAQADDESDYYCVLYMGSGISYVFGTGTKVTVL	0.2
Fab VH5-51_IGHD5-18*01>3_IGHJ4*01 G100K/G104T G24L/S28R/G35V (KT LRV) & V3-4_IGLJ1*01 V91L/S96P S52Q (Fab, V domains shown, Fab; Expressed in E. coli with CH1 (plasmid A, His6 and Flag tags) and lambda CL (plasmid E); also called G100K/G104T G24L/S28R/G35V & V91L/S96P S52Q) VH: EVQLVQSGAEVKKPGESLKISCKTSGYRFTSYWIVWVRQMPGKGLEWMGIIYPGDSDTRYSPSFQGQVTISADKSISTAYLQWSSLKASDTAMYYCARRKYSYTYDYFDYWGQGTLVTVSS VL: QTVVTQEPSFSVSPGGTVTLTCGLSSGSVSTSYYPSWYQQTPGQAPRTLIYQTNTRSSGVPDRFSGSILGNKAALTITGAQADDESDYYCLLYMGPGISYVFGTGTKVTVL	0.96
